Origin of values: patent US11439586B2

Assay: Solubility of antineoplastic drugs in biocompatible pharmaceutical solvents
Conditions: Tween-80, 110 °C, organic solvent or mixture
observation.type: solubility

Provide one value: measured solubility of CC(=O)O[C@H]1C(=O)[C@@]2(C)[C@H]([C@H](OC(=O)c3ccccc3)[C@]3(O)C[C@H](OC(=O)[C@H](O)[C@@H](NC(=O)c4ccccc4)c4ccccc4)C(C)=C1C3(C)C)[C@]1(OC(C)=O)CO[C@@H]1C[C@@H]2O
> 6000 µg/mL

###

Test: Solubility of antineoplastic drugs in biocompatible pharmaceutical solvents
Conditions: Medium Chain Triglycerides, 25 °C, oil or lipid
observation.type: solubility

Provide one value: measured solubility of COc1cc([C@@H]2c3cc4c(cc3[C@@H](O[C@@H]3O[C@@H]5CO[C@@H](c6cccs6)O[C@H]5[C@H](O)[C@H]3O)[C@H]3COC(=O)[C@H]23)OCO4)cc(OC)c1O [Teniposide]
< 200 µg/mL

Provide one value: measured solubility of CC(=O)O[C@@]12CO[C@@H]1C[C@H](O)[C@@]1(C)C(=O)[C@H](O)C3=C(C)[C@@H](OC(=O)[C@H](O)[C@@H](NC(=O)OC(C)(C)C)c4ccccc4)C[C@@](O)([C@@H](OC(=O)c4ccccc4)[C@H]21)C3(C)C
< 10000 µg/mL

Provide one value: measured solubility of CC(=O)O[C@H]1C(=O)[C@@]2(C)[C@H]([C@H](OC(=O)c3ccccc3)[C@]3(O)C[C@H](OC(=O)[C@H](O)[C@@H](NC(=O)c4ccccc4)c4ccccc4)C(C)=C1C3(C)C)[C@]1(OC(C)=O)CO[C@@H]1C[C@@H]2O
< 6000 µg/mL

Provide one value: measured solubility of CC[C@@]1(O)C(=O)OCc2c1cc1n(c2=O)Cc2cc3cc(O)ccc3nc2-1 [Hydroxycamptothecine]
< 1000 µg/mL
